System: UACC-62
Test: NCI tumour cell line growth inhibition, 48 h
Active and inactive are the calls of the source. Rule as the data show it: active = GI50 up to about 1.1 µM and inactive = higher.
Give your call using only these classes: 1 (active), -1 (inactive)

IN: Which outcome did this test record for the molecule Oc1ccccc1C(Sc1nc2ccccc2s1)Sc1nc2ccccc2s1 ?
OUT: -1

IN: Cc1cc2c(C(C)C)c(O)c(O)c(C=O)c2c(O)c1-c1c(C)cc2c(C(C)C)c(O)c(O)c(C=O)c2c1O , same question.
OUT: -1

IN: Now the same for COC(=O)C(=Cc1cc(OC)c(OC)c(OC)c1-c1cc2c(cc1C(C)=O)OCO2)C(=O)OC
OUT: -1

IN: Then C1CNCCNCCN1 ?
OUT: -1

IN: Would you kindly repeat that for CC1=CCN(c2ccccn2)OC1c1ccccc1 (centres undefined) ?
OUT: -1

IN: What about C/C=C/[C@H]1O[C@@](O)([C@@H](C)[C@H](O)[C@H](C)[C@H]2OC(=O)/C(OC)=C/C(C)=C/[C@@H](C)[C@@H](O)[C@@H](CC)[C@@H](O)[C@H](C)C/C(C)=C/C=C/[C@@H]2OC)C[C@H](OC2CC(O)C(OC(N)=O)C(C)O2)[C@@H]1C (some centres undefined) ?
OUT: 1

IN: Okay, and CCC(=O)Oc1c2ccsc2c(OC(=O)CC)c2ccsc12 ?
OUT: 1

IN: Moving on to the next molecule: COC(=O)[C@]1(Cc2ccc3ccccc3c2)CCCCCCN1C(=O)c1ccccc1
OUT: -1

IN: Ok, now COc1cc(-c2cc(=O)c3cc4c(=O)cc(-c5cc(OC)c(OC)c(OC)c5)oc4cc3o2)cc(OC)c1OC
OUT: -1

* * *

Test system: IGROV-1
Test: NCI tumour cell line growth inhibition, 48 h
Activity calls are given as the source filed them. Rule as the data show it: active = GI50 up to about 1.1 µM and inactive = higher.
METRIC NAME: GI50

IN: Given the entry Cc1noc(-c2ccc(C(=O)O)[nH]2)c1Br , report its measured GI50.
OUT: 16.4 µM (inactive)

IN: Proceed to C[C@]12CCC(O)CC1=CC[C@@H]1[C@@H]2CC[C@]2(C)C(O)[C@H](n3ccnc3)C[C@@H]12 (stereo not given in full)
OUT: > 100 µM (inactive)

IN: Note, next up: COC(=O)/C(=N\N)C(C(=O)C(=O)Nc1nnc(S)[nH]1)c1nc2ccc([N+](=O)[O-])cc2nc1O (stereo not given)
OUT: > 100 µM (inactive)

IN: What do you get for NC1=NCCN1CC(=O)O ?
OUT: > 1000 µM (inactive)

IN: // same read-out, input: NC1CC(=O)c2sccc21 (stereo not given)
OUT: > 100 µM (inactive)

IN: Another: CC1=CCN(c2ccccn2)OC1c1ccccc1 (stereo not given)
OUT: > 100 µM (inactive)

IN: Field entry: Cc1cn([C@@H]2O[C@H](CO[Si](C)(C)C(C)(C)C)[C@]3(O[C@H]3C(=O)NN)[C@H]2O[Si](C)(C)C(C)(C)C)c(=O)[nH]c1=O
OUT: 6.22 µM (inactive)

IN: Likewise for CC1(C)C=C(/C=N/Nc2ccc([N+](=O)[O-])cc2)C(C#N)=C(O)C1(C#N)C#N ?
OUT: > 100 µM (inactive)

IN: Now the compound COc1ccc(/C=C/C(=O)c2ccc(Br)cc2)cc1
OUT: > 100 µM (inactive)

IN: Next record, please: NS(=O)(=O)OCCCCCCCOS(N)(=O)=O
OUT: 376 µM (inactive)

* * *

Tested on: COLO 205
Experiment: NCI tumour cell line growth inhibition, 48 h
Activity calls are given as the source filed them. Cut-off read from the data, not from the text of the source: active = GI50 up to about 1.1 µM and inactive = higher.
Entry note: the call must match one of 1 (active), 0 (inactive)

IN: Which result was noted for this molecule in the test: CCC1C(NC(=O)OC)C(=O)N1[C@@H](C)c1ccccc1 (stereo partly specified)
OUT: 0

IN: What do you have for c1ccc(CN(Cn2cccn2)Cn2cccn2)nc1 ?
OUT: 0

IN: Again, but for Cc1cc(C)n(-c2nsc3ccccc23)n1
OUT: 0

IN: Proceed to COc1ccc(/C=C/C(=O)c2ccc(Br)cc2)cc1
OUT: 0

IN: Moving on to COC(=O)/C(=N\NC(C)(C)C)C(C(=O)C(=O)Nc1cc(C)ccc1C)c1nc2ccccc2nc1O (stereo unspecified)
OUT: 0

IN: And for CN(C)CCN1C(=O)c2cccc3cc([N+](=O)[O-])cc(c23)C1=O [MITONAFIDE] ?
OUT: 1

* * *

Test system: U-251
Assay: NCI tumour cell line growth inhibition, 48 h
The source made the active and inactive calls. Cut-off read from the data, not from the text of the source: active = GI50 up to about 1.1 µM and inactive = higher.
I would appreciate it if you answered using one of these outcomes: active, inactive

IN: Lab log entry: CN(C)CCCNC(=O)N/N=C/c1ccc([N+](=O)[O-])cc1 — outcome as called in the assay?
OUT: inactive

IN: Follow-up item: O=C1NC(=S)NC(=O)C1=CC1CC1
OUT: inactive

IN: Next: Nc1nc[n+](Cc2ccccc2)c2ncn(Cc3ccccc3)c12
OUT: inactive

IN: For COc1cc(/C=C2/C[C@H]3[C@@H]4CC=C5C[C@@H](O)CC[C@]5(C)[C@H]4CC[C@]3(C)NC2=O)cc(OC)c1OC then?
OUT: inactive

IN: Note, next up: O=S(=O)(c1ccccc1)C1CN(Cc2ccccc2)CCN(Cc2ccccc2)C1
OUT: inactive

IN: And for C/C=C/[C@H]1O[C@@](O)([C@@H](C)[C@H](O)[C@H](C)[C@H]2OC(=O)/C(OC)=C/C(C)=C/[C@@H](C)[C@@H](O)[C@@H](CC)[C@@H](O)[C@H](C)C/C(C)=C/C=C/[C@@H]2OC)C[C@H](OC2CC(O)C(OC(N)=O)C(C)O2)[C@@H]1C (stereo partly drawn) ?
OUT: active

IN: // repeat for CCOC(=O)c1csc(NC(=O)CN2CCN(C)CC2)n1 and report
OUT: inactive

IN: Try the molecule O=C1C=C(Nc2ccc(S(=O)(=O)Nc3ncccn3)cc2)c2ccccc2C1=O
OUT: inactive

IN: Field entry: COC(=O)C1=CO[C@@H](OC2CC(CO)C(O)C(O)C2O)[C@@H]2[C@@H](C)[C@@H](OC(=O)/C=C/c3ccccc3)[C@@H](O)[C@H]12.COC(=O)C1=CO[C@@H](OC2CC(CO)C(O)C(O)C2O)[C@@H]2[C@@H](C)[C@@H](OC(=O)c3ccccc3)[C@@H](O)[C@H]12 (stereo partly drawn)
OUT: inactive

IN: Note, next up: CC1(C)[C@@H](Cn2cc(I)c(=O)[nH]c2=O)CC[C@@]1(C)CO
OUT: inactive

IN: What about this molecule? O=S(=O)(c1ccccc1)C1CN2OC1(S(=O)(=O)c1ccccc1)CC21CCCCC1 (stereo not drawn)
OUT: inactive

IN: What would you report for Clc1ccc2c(NCCNC3CCCCC3)ccnc2c1 ?
OUT: inactive

IN: COc1ccccc1NC(=O)CC(=O)n1nc(C)c(/N=N/c2ccccc2F)c1C ?
OUT: inactive

IN: Same again, this time with CC(NC(=O)c1ccccc1)NC(=O)C(C)C(=O)Nc1ccccc1 (stereo not drawn)
OUT: inactive

IN: Param item: COc1ccc([S+]([O-])Cc2cc(OC)ccc2OC)cc1 (stereo not drawn)
OUT: inactive

IN: And N#Cc1c(O)c(/N=N/c2ccc(Cl)cc2)c(=O)n2c1[nH]c1ccccc12 ?
OUT: inactive

IN: Also COP(=O)(Cc1ccc(/C=C/C#N)o1)OC , if possible.
OUT: inactive

IN: Now the same for N=C(N)SCc1cccc([N+](=O)[O-])c1
OUT: inactive

* * *

Provide the recorded GI50 for the entries that follow.
Test system: IGROV-1
Experiment: NCI tumour cell line growth inhibition, 48 h
The source made the active and inactive calls. Cut-off read from the data, not from the text of the source: active = GI50 up to about 1.1 µM and inactive = higher.

IN: Can you share its GI50? I mean this molecule: O=C1N=C2Sc3ccc4ccccc4c3N2C1=O
OUT: 19.1 µM (inactive)

IN: Also O=C1OC(c2ccc(Cl)c3ccccc23)c2ccccc21 (stereo not given) , if possible.
OUT: > 100 µM (inactive)

IN: What do you have for COc1ccccc1NC(=O)C1=C(C)NC(C)=C(C(=O)Nc2ccccc2OC)C1c1ccc(N(C)C)cc1 ?
OUT: 33.4 µM (inactive)

IN: Another: COc1cc2c(cc1OC)C(CC(=O)NN=C(C)C)NCC2 (stereo not given)
OUT: > 100 µM (inactive)

IN: Thanks! And O=C(Nc1cccs1)c1c(O)[nH]c(=S)[nH]c1=O ?
OUT: > 100 µM (inactive)

IN: Same read-out for O=c1c2cccnc2[nH]c2ccc3[nH]ncc3c12 ?
OUT: 6.11 µM (inactive)

IN: And for Cc1cc2c(cc1Cl)SC(NNC(=O)c1ccccc1)=NS2(=O)=O ?
OUT: > 10 µM (inactive)

IN: And then C1CNCCNCCN1 , what is it?
OUT: > 100 µM (inactive)

IN: What do we get for CSc1nc(C)c2c(n1)N(c1ccc(Cl)cc1)CC2 ?
OUT: > 100 µM (inactive)

IN: Item: O=C1c2c(O)cccc2Cc2cc(CO)cc(O)c21
OUT: 4.03 µM (inactive)

From: ChEMBL document CHEMBL1201862
